experiment: Quantitative High-Throughput drug screen in 47 multiple myeloma cell lines against the NCATS MIPE library collection: XG6_PLB cell viability assay (AID 1919865); settings: XG6 myeloma viability, CellTiter-Glo ATP luminescence, 48 h; series mostly up to 45.8 µM; also: nearly all actives have a fitted effect of over 40% in size
Inconclusive results are not listed. Activity calls are given as the source filed them. Calls follow the shape of the dose curve; as a rule, active = well fitted cell-killing curve with a large enough effect; inconclusive = small, poorly fitted or top-dose-only effect, or effect the other way; inactive = no such curve, though single readings can be large or run the other way.
Would you mind answering with one of these outcomes? active, inactive

Exam item: Hi team, can someone confirm the assay call for `CS(=O)(=O)c1cccc(CNc2nc(Nc3ccc4c(c3)CCC(=O)N4)ncc2C(F)(F)F)c1` ?
Marked response: active

Exam item: Would you mind telling me which call this test gave `CC1(C)CNc2cc(NC(=O)c3cccnc3NCc3ccncc3)ccc21` ?
Marked response: active

Exam item: Assay outcome for `Cc1ccc(NC(=O)c2cccc(C(C)(C)C#N)c2)cc1Nc1ccc2ncn(C)c(=O)c2c1` : what was it?
Marked response: active

Exam item: Which outcome did this test record for the compound `C[C@H](NC(=O)Cc1cc(F)cc(F)c1)C(=O)N[C@@H]1C(=O)N(C)c2ccccc2-c2ccccc21` ?
Marked response: active

Exam item: What was the test verdict on CC(C)(C)NCC(O)c1ccc(O)c(CO)c1 (stereo not given) ?
Marked response: inactive

Exam item: Please share the test call associated with `Cc1[nH]c(=O)c(C#N)cc1-c1ccncc1` .
Marked response: active

Exam item: Each compound tested received a call. Report the one for `Cc1cc(SCc2sc(-c3ccc(C(F)(F)F)cc3)nc2C)ccc1OCC(=O)O` .
Marked response: inactive

Exam item: Tell me the recorded outcome of this test for `Cc1c(CCOc2ccc(C(=O)O)cc2)c2cc(Cl)ccc2n1C(c1ccccc1)c1ccccc1` .
Marked response: inactive

Exam item: Check the results log: what was the call for OC(CN1CCC(Cc2ccc(F)cc2)CC1)c1ccc(Cl)cc1 (stereo not given) ?
Marked response: inactive

Exam item: Please let me know the test result on file for `CO[C@@H]1[C@H](N(C)C(=O)c2ccccc2)C[C@H]2O[C@]1(C)n1c3ccccc3c3c4c(c5c6ccccc6n2c5c31)C(=O)NC4` .
Marked response: active

Exam item: Each compound tested received a call. Report the one for `C#Cc1cccc(Nc2ncnc3cc(OCCOC)c(OCCOC)cc23)c1` .
Marked response: active

Exam item: State the result this test recorded for `CCn1c(-c2nonc2N)nc2c(C#CC(C)(C)O)ncc(OC[C@H]3CCCNC3)c21` .
Marked response: active

Exam item: Short answer needed: outcome of this test for `N=c1nc(N2CCCCC2)cc(N)n1O` ?
Marked response: active

Exam item: How did this test come out for `CCOc1ccn(-c2ccc(F)cc2)c(=O)c1C(=O)Nc1ccc(Oc2ccnc(N)c2Cl)c(F)c1` ?
Marked response: active

Exam item: Hi, sorry to bother you, what did the test record for `COc1ccc([C@@H]2CC(=O)c3c(O)cc(O[C@@H]4O[C@H](CO[C@@H]5O[C@@H](C)[C@H](O)[C@@H](O)[C@@H]5O)[C@@H](O)[C@H](O)[C@@H]4O)cc3O2)cc1O` ?
Marked response: active

Exam item: Which result was noted for this compound in the test: `O=C(Nc1nc2ccccc2n1CCN1CCOCC1)c1cccc([N+](=O)[O-])c1`
Marked response: active

Exam item: In this assay, the call recorded for `COc1c(Cl)cc2c([nH]c3cnccc32)c1NC(=O)c1cccnc1C` was what?
Marked response: active

Exam item: Which result was noted for this compound in the test: `O=C(O)CCc1ccc(NCc2cccc(Oc3ccccc3)c2)cc1`
Marked response: inactive

Exam item: Check the results log: what was the call for O=C1CCCC2=C1C(c1[nH]ncc1Cl)N=C(Nc1nc3ccccc3o1)N2 (stereo not given) ?
Marked response: active

Exam item: Which outcome was entered for the compound `Cc1oncc1C(=O)Nc1ccc(C(F)(F)F)cc1` in this test?
Marked response: active
